Data credit: the supplement of paper PMC9233669

Test system: biotinyl-Trp-oxazolone
assay: self-aminoacylation, catalytic enhancement (BWO) (fold over background); higher = more active; k-Seq, kA / k0A0; sequences stand for … in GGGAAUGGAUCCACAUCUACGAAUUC…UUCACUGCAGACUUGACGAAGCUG
This sample holds only a part of the variants without activity.
Decision: self-aminoacylation compared against 4; not below it gives T, below it gives F.

# bool: self-aminoacylation of CUACUUCAAACAAUCGGCCUG [Fam1A.1 aminoacylation ribozyme variant] >= 4 T

Further cases:
# bool: self-aminoacylation of CCACACUUCGAGCGAUCGGUC [Fam1B.1 aminoacylation ribozyme variant] >= 4 F

# bool: self-aminoacylation of CUCUUUCAAACAAUCGGUCUG [Fam1A.1 aminoacylation ribozyme variant] >= 4 T

# bool: self-aminoacylation of AUUCCCCUAGGUCAUCGGGGG [Fam2.2 aminoacylation ribozyme variant] >= 4 T

# bool: self-aminoacylation of AUUACCCGGGACAUCGAGUGA [Fam2.1 aminoacylation ribozyme variant] >= 4 T

# bool: self-aminoacylation of CUAAUUCACACAAUCGGUCUG [Fam1A.1 aminoacylation ribozyme variant] >= 4 F

# bool: self-aminoacylation of AUUCACCCAGGUCAACGGGUG [Fam2.2 aminoacylation ribozyme variant] >= 4 F

# bool: self-aminoacylation of AUUCACAUAGGUCAUAGGGUG [Fam2.2 aminoacylation ribozyme variant] >= 4 F

* * *

Tested on: biotinyl-Phe-oxazolone
assay: self-aminoacylation, catalytic enhancement (BFO) (fold over background); higher = more active; k-Seq, kA / k0A0; sequences stand for … in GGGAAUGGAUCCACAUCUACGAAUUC…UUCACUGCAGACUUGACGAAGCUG
Variants at the floor of the assay were thinned out.
Some sequences, each annotated with its measured self-aminoacylation.
Reply with just the number.

Use the examples below as a reference point.
Give the measured self-aminoacylation of CUACUUCAAUUAAUCGGUCUG [Fam1A.1 aminoacylation ribozyme variant] . 18.7

Give the measured self-aminoacylation of CUACUUCAAAUAAUCGGGCUG [Fam1A.1 aminoacylation ribozyme variant] . 4.76

Give the measured self-aminoacylation of AUUACCCUGGUCACCGAGUGA [Fam2.1 aminoacylation ribozyme variant] . 51.3

Further cases:
Give the measured self-aminoacylation of ACUCACCUAGGUCAUCUGGUG [Fam2.2 aminoacylation ribozyme variant] . 6.43

Give the measured self-aminoacylation of UUUACCCUGGUCAUAGAGUGA [Fam2.1 aminoacylation ribozyme variant] . 27.7

Give the measured self-aminoacylation of CUCCUUCAAACACUCGGUCUG [Fam1A.1 aminoacylation ribozyme variant] . 6.18

Give the measured self-aminoacylation of ACGCUUGCUAAUAGUCGCAAG [Fam3.1 aminoacylation ribozyme variant] . 5.67

Give the measured self-aminoacylation of GUACUUCAAACAAUCGGUCUC [Fam1A.1 aminoacylation ribozyme variant] . 39.5

* * *

Test system: biotinyl-Leu-oxazolone
assay: self-aminoacylation, catalytic enhancement (BLO) (fold over background); higher = more active; k-Seq, kA / k0A0; sequences stand for … in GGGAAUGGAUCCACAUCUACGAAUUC…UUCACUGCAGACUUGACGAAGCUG
Variants at the floor of the assay were thinned out.
measurementName: self-aminoacylation

Give the measured self-aminoacylation of AUUCCCCUGGGCAUCGAGUGA [Fam2.1 aminoacylation ribozyme variant] . 11.1

Give the measured self-aminoacylation of AAGUUCGCUAAUAGUCGCAGG [Fam3.1 aminoacylation ribozyme variant] . 3.87

Give the measured self-aminoacylation of CUACUUCACACAAUUGGUCUG [Fam1A.1 aminoacylation ribozyme variant] . 0.729

Give the measured self-aminoacylation of AUUGACCUAGGUCAUCGGGCG [Fam2.2 aminoacylation ribozyme variant] . 6

Give the measured self-aminoacylation of AUUCACUUAGAUCAUCGGGUG [Fam2.2 aminoacylation ribozyme variant] . 2.57

Further cases:
Give the measured self-aminoacylation of AUUACCCUGGUCAUCGCGGGA [Fam2.1 aminoacylation ribozyme variant] . 7.42

Give the measured self-aminoacylation of CCACACUGCAAGCAAUCAGUC [Fam1B.1 aminoacylation ribozyme variant] . 0.852

Give the measured self-aminoacylation of AUUCACUGAGGUCAUCGGGUG [Fam2.2 aminoacylation ribozyme variant] . 9.09

Give the measured self-aminoacylation of GUACUUCAAACUAUCGGUCUG [Fam1A.1 aminoacylation ribozyme variant] . 1.14
